system: Pseudomonas aeruginosa; experiment: Antimicrobial activity against Pseudomonas aeruginosa 15G2 tracheal isolates from mechanically ventilated chronic respiratory insufficiency patient; format: functional, organism-based; details: Trachea
Calls of active or inactive are those of the source. The rule behind the calls is not given here.
Measure: Activity

The examples below pair each entry with its known result.
- CC(C)(O/N=C(\C(=O)N[C@@H]1C(=O)N2C(C(=O)[O-])=C(C[n+]3ccccc3)CS[C@H]12)c1csc(N)n1)C(=O)O: Active
- C[C@@H](O)[C@H]1C(=O)N2C(C(=O)O)=C(SCCNC=N)C[C@H]12: Active
- NCC[C@H](O)C(=O)N[C@@H]1C[C@H](N)[C@@H](O[C@H]2O[C@H](CN)[C@@H](O)[C@H](O)[C@H]2O)[C@H](O)[C@H]1O[C@H]1O[C@H](CO)[C@@H](O)[C@H](N)[C@H]1O: Active
- O=C(O)c1cn(C2CC2)c2cc(N3CCNCC3)c(F)cc2c1=O: inactive
- CO/N=C(\C(=O)N[C@@H]1C(=O)N2C(C(=O)[O-])=C(C[N+]3(C)CCCC3)CS[C@H]12)c1csc(N)n1: Active

Please report the recorded Activity for CCn1cc(C(=O)O)c(=O)c2cc(F)c(N3CCNCC3)cc21 .
inactive

----------
test system: Pseudomonas aeruginosa; assay: Antimicrobial activity against Pseudomonas aeruginosa 65.68-4 tracheal isolates from mechanically ventilated tuberculosis patient; assay type: functional, organism-based; conditions: Trachea
Activity calls are given as the source filed them. The rule behind the calls is not given here.
// allowed return values: active, inactive

- O=C(O)c1cn(C2CC2)c2cc(N3CCNCC3)c(F)cc2c1=O: active
- CCn1cc(C(=O)O)c(=O)c2cc(F)c(N3CCNCC3)cc21: active
- CC(C)(O/N=C(\C(=O)N[C@@H]1C(=O)N2C(C(=O)[O-])=C(C[n+]3ccccc3)CS[C@H]12)c1csc(N)n1)C(=O)O: active
- CO/N=C(\C(=O)N[C@@H]1C(=O)N2C(C(=O)[O-])=C(C[N+]3(C)CCCC3)CS[C@H]12)c1csc(N)n1: active
- C[C@@H](O)[C@H]1C(=O)N2C(C(=O)O)=C(S[C@@H]3CN[C@H](C(=O)N(C)C)C3)[C@H](C)[C@H]12: inactive
- NCC[C@H](O)C(=O)N[C@@H]1C[C@H](N)[C@@H](O[C@H]2O[C@H](CN)[C@@H](O)[C@H](O)[C@H]2O)[C@H](O)[C@H]1O[C@H]1O[C@H](CO)[C@@H](O)[C@H](N)[C@H]1O: active
- CCN1CCN(C(=O)N[C@@H](C(=O)N[C@@H]2C(=O)N3[C@@H]2SC(C)(C)[C@@H]3C(=O)O)c2ccccc2)C(=O)C1=O: active
- C[C@@H](O)[C@H]1C(=O)N2C(C(=O)O)=C(SCCNC=N)C[C@H]12: inactive
- NC[C@H]1O[C@H](O[C@H]2[C@H](O)[C@@H](O[C@H]3O[C@H](CO)[C@@H](O)[C@H](N)[C@H]3O)[C@H](N)C[C@@H]2N)[C@H](N)C[C@@H]1O: active

What was the test verdict on C[C@H]1[C@H](NC(=O)/C(=N\OC(C)(C)C(=O)O)c2csc(N)n2)C(=O)N1S(=O)(=O)O ?
active

----------
system: Pseudomonas aeruginosa; test: Antimicrobial activity against Pseudomonas aeruginosa 1A9 tracheal isolates from mechanically ventilated tuberculosis patient; type: functional, organism-based; settings: Trachea
Active and inactive are the calls of the source. No cut-off for these calls is given here.
// allowed return values: active, inactive

Example entries and their recorded answers appear below.
• CCN1CCN(C(=O)N[C@@H](C(=O)N[C@@H]2C(=O)N3[C@@H]2SC(C)(C)[C@@H]3C(=O)O)c2ccccc2)C(=O)C1=O = inactive
• C[C@@H](O)[C@H]1C(=O)N2C(C(=O)O)=C(S[C@@H]3CN[C@H](C(=O)N(C)C)C3)[C@H](C)[C@H]12 = inactive

// switching to the query compound
What was the test verdict on O=C(O)c1cn(C2CC2)c2cc(N3CCNCC3)c(F)cc2c1=O ?
active
